biological target: Fructose-bisphosphate aldolase (Mycobacterium tuberculosis (strain ATCC 25618 / H37Rv)); assay: Mtb FBA enzyme inhibitors, primary screen, biochemical, fluorescence, strain H37Rv (AID 588726);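 further: 0% = vehicle and 100% = reference inhibitor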; conditions: purified M. tuberculosis FBA, fluorescence read-out, at 1 µM
Hit rate of the full screen: of about 360,000 compounds, about 8,200 (2.3%) were called active. No stated cut-off is given here; in the data, active means inhibition above about 27%; inactive means the rest. This excerpt belongs to a sample that is enriched for actives.
Outcome codes: active, inactive

- COc1cccc(N(C(=O)c2ccn[nH]2)C2(C(=O)Nc3c(C)cccc3C)CCCCC2)c1: inactive
- CN(Cc1ccccc1)CC(O)COc1ccc(CNCc2cc3ccccc3s2)cc1 (configuration not stated): inactive
- COc1cc(C(F)(F)F)nc2c(Br)c(C(C)(C)C)nn12: active
- CCc1ccc(C(=O)NN=C2CCCCCC2)s1: inactive
- CC(C)(C)C(=O)Nc1cccc(-c2ccc[nH]2)n1: active
- COc1cccc2sc3cc(NCC[C@@H]4CCCN4C)ccc3c(=O)c12: active
- CN1CCC[C@@H]1CCO[C@](C)(c1ccccc1)c1ccc(Cl)cc1: inactive
- Cc1cccc(NC(=O)COc2ccc(Br)cc2C)n1: inactive
- Cc1cccc(NC(=O)Cc2ccc(Br)cc2)n1: inactive
- Cc1cc2oc3ccc(NCCC4CCCN4C)cc3c(=O)c2cc1C (configuration not stated): inactive
- O=C1NC(=O)C(c2ccc(Cl)cc2)N1 (configuration not stated): inactive
- Cc1ccc(SCC(=O)NNC(=O)c2ccc(S(C)(=O)=O)cc2)cc1: inactive

* * *

molecular target: Fructose-bisphosphate aldolase (Mycobacterium tuberculosis (strain ATCC 25618 / H37Rv)) (UniProt P9WQA3); assay: Mtb FBA enzyme inhibitors, primary screen, biochemical, fluorescence, strain H37Rv (AID 588726);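 further: 0% = vehicle and 100% = reference inhibitor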; details: purified M. tuberculosis FBA, fluorescence read-out, at 1 µM, stronger effect = higher value
Sequence (P9WQA3 whole entry, looked up): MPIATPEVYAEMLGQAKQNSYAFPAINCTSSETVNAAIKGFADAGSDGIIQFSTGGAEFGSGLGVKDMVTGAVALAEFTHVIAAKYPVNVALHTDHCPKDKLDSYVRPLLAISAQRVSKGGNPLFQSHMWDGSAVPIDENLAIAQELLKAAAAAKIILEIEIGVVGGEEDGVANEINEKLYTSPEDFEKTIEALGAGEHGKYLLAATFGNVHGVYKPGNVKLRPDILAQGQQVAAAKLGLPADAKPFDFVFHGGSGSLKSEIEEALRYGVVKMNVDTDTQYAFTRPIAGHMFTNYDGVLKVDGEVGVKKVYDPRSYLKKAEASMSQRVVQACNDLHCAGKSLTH
About 8,200 (2.3%) of roughly 360,000 compounds were called active. The full list was thinned out, with actives kept by preference.
property measured: inhibition (%)

* COc1ccc(C)cc1NC(=O)c1cc(-c2ccccc2)nc2c1cnn2C(C)C | 1.87
* CC(=O)N1CCOc2ccc(S(=O)(=O)N3CCC(C(=O)Nc4ccccc4F)CC3)cc21 | 3.64
* C=CCn1c(C(C)NC(=O)CC)nc2ccccc21 (centres undefined) | 3.68
* CCOC(=O)N1CCN(Cc2nc3cc(NC(=O)CC)ccc3n2CC)CC1 | 0.91
* CC1(C)C(=O)C2(CCCCC2)C(=O)OC1c1cccs1 (centres undefined) | -0.98
* Cc1cccc(NC(=O)c2cc(S(=O)(=O)N3CCC4(CC3)OCCO4)ccc2F)c1 | -0.22
* CCC1CCCCN1CCNC(=O)c1[nH]c(C)c(C(C)=O)c1C (centres undefined) | -2.24
* Cc1ccc(Cn2cc(C(=O)NN)c(=O)c3ccc(F)cc32)cc1 | -0.43
* Cc1cc(N=Nc2ccc3ccccc3c2)ccc1O | -3.13
* Cc1c(CC(=O)NCC(=O)NCC(=O)O)c(=O)oc2cc3oc4c(c3cc12)CCCC4 | 16.6
* Cc1nc2ccccc2cc1O | 116
* CCOC(=O)C1=C(N)N(c2ccc(C)cc2)C2=C(C(=O)CCC2)C1c1cccs1 (centres undefined) | -1.49
* CC(=O)N1CC(=O)N(CC(=O)Nc2ccc(Br)cc2)C1=S | -0.11
* COc1ccc2c(c1)cc1n2CCN=C1NN | 41.9
* CCOc1ccc(C2C3=C(CCCC3=O)N(CC(=O)O)C3=C2C(=O)CCC3)cc1 | 39.2
* O=C(Nc1cccnc1)c1noc2c1CCCCC2 | 1.31
* COc1ccc(CCNC(=O)CCCCCNC(=O)N2CCn3c2nc2ccccc23)cc1OC | -0.38
* CCCCCn1c(SCCC(C)C)nc2c1c(=O)[nH]c(=O)n2C | -1.96
* CCN(CC)CCCNC(=O)c1cc(-c2cccc(Cl)c2)on1 | 0
* C=CCn1c(N)c(S(=O)(=O)c2cccs2)c2nc3ccccc3nc21 | 163
* Cc1nc2ccc(C(=O)N3CCSCC3)cc2s1 | -8.83
* Cc1nc2ccccc2nc1CC(O)(c1ccccc1)c1ccccc1 | 0.56
* O=C(Nc1ccc(Cl)cc1)C1Cc2c(-c3ccc4c(c3)OCO4)ccnc2O1 (centres undefined) | 26.8
* CCOC(=O)c1sc(/N=C/Nc2nc(C)c(C(=O)OCC)s2)nc1C | 2.19
* COc1ccccc1NC(=O)C(CC(=O)O)Cc1cc(C)cc(C)c1 (centres undefined) | -0.4
* CCOc1ccc(C2C(C#N)=C(N)N(N(C)C)C3=C2C(=O)CCC3)cc1 (centres undefined) | -0.23
* Cc1cccc(N(C)C(=O)c2cc3c(=O)[nH]c4ccc(C)cc4c3s2)c1 | 2.59
* CCC(=O)Nc1ccc2nn(-c3ccc(F)cc3)nc2c1 | 102
* COc1ccc(N)c(C)c1 | 1.98
* COc1ccccc1N(CC(=O)N/N=C(\C)c1ccccc1O)S(=O)(=O)c1ccc(C)cc1 | 2.36
* O=C1OCCN1C(=O)[C@H]1[C@H](c2ccccc2)C(c2ccc(F)cc2)=NN1c1ccccc1 | 11
* CCc1ccc(Oc2coc3cc(OC(=O)c4cc5ccccc5oc4=O)ccc3c2=O)cc1 | 13.1
* CC1(C(=O)NCc2cccc3ccccc23)CCN1Cc1ccc(-c2ccccc2)o1 (centres undefined) | 2.7
* CCc1nn(CCCC(=O)NCc2ccc(C)cc2)c(=O)c2cc3occc3n12 | -0.41
* COCc1c(N)c(C)nc(Cl)c1C#N | 7.26
* O=c1oc2ccccc2cc1-c1cn(-c2ccccc2)c(=S)[nH]1 | 40.4
* CCCN(CCC)CCCNC(=O)CNC(=O)c1nn(-c2ccc(OC)cc2)c(=O)c2ccccc12 | 1.04
* O=C(Nc1cccc(Cl)c1)c1cncn1-c1ccc(F)cc1 | 6.15
* COc1ccc(C2C(C#N)=C(N)N(c3ncn[nH]3)C3=C2C(=O)CCC3)cc1 (centres undefined) | 3.59
* CCOC(=O)N1CCN(CC(=O)Nc2ccc(F)cc2)CC1 | -0.85
* COc1ccc(CNC(=O)COC(=O)/C=C/c2ccc(S(=O)(=O)N3CCOCC3)cc2)cc1 | -5.75
* CS(=O)(=O)N(Cc1ccccc1Cl)c1ccc(C(=O)NCc2cccnc2)cc1 | -3.74
* C[C@@H]1C(c2ccc(F)cc2)=NN(c2ccc(Br)cc2)[C@H]1C(=O)N1CCOC1=O | 20.3
* CCCN1C2=C(C(=O)CCC2)C(c2ccc(O)c(Br)c2)C2=C1CCCC2=O | -1.2

* * *

molecular target: Fructose-bisphosphate aldolase (Mycobacterium tuberculosis (strain ATCC 25618 / H37Rv)); assay: Mtb FBA enzyme inhibitors, primary screen, biochemical, fluorescence, strain H37Rv (AID 588726);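 further: 0% = vehicle and 100% = reference inhibitor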; conditions: purified M. tuberculosis FBA, fluorescence read-out, at 1 µM
Hit rate of the full screen: of about 360,000 compounds, about 8,200 (2.3%) were called active. Cut-off read from the data, not from the text of the source: active = inhibition above about 27%; inactive = the rest. Shown is part of a subset that was picked to be rich in actives.
Outcome codes: active, inactive

• CN1C(=O)/C(=C\c2cc(Br)cs2)c2ccccc21 = inactive
• CCc1nc2c(OCC(N)=O)cccn2c1N(C)C(=O)c1ccc(OC)cc1 = inactive
• Cn1c(=O)c2c(SCC(=O)NCC3CCCO3)nc(CC(C)(C)C)nc2n(C)c1=O (stereo unspecified) = inactive
• COc1ccc(-c2cc3nc(NCCOc4ccccc4)ccn3n2)cc1 = inactive
• Cc1noc(C)c1-c1ccc2ncnc(NC(C)c3ccco3)c2c1 (stereo unspecified) = inactive
• CCC(=O)c1ccc(OCC(=O)OCC(=O)N2CCc3ccccc3C2)cc1 = inactive
• CC(=O)NCC(=O)N1CCCC(C(=O)c2ccc3c4c(cccc24)CC3)C1 (stereo unspecified) = active
• COc1cccc(NC(=O)[C@H](Cc2c[nH]c3ccccc23)NC(=O)[C@@H]2Cc3ccccc3CN2)c1 = inactive
• O=C(CCS(=O)(=O)c1ccccc1Cl)Nc1ccc(S(=O)(=O)Nc2ncccn2)cc1 = inactive
• Nn1c(SCC(=O)NC(=O)NC2CCCC2)nnc1-c1ccccc1F = inactive
• O=C(COC(=O)c1ccc(S(=O)(=O)N2CCCCCC2)cc1)Nc1ccccc1C(F)(F)F = inactive
• NC(=S)NN=Cc1ccc(OC(=O)COc2cc(Cl)c(Cl)cc2Cl)cn1 = inactive
• CCn1ccnc1CN1CCCC(C(=O)c2ccc3c4c(cccc24)CC3)C1 (stereo unspecified) = inactive
• COc1ccc(C(=O)OCC(=O)Nc2ccc3[nH]c(=O)[nH]c3c2)c(OC)c1OC = inactive
• COCCNc1cc(-c2ccccc2)nc2cc(-c3cccc(F)c3)nn12 = active
• CC(C)(C)OC(=O)Nc1ccc([C@@H](NC(=O)OC(C)(C)C)C(=O)OC(C)(C)C)cc1 = inactive
• OC(COCCC12CC3CC(CC(C3)C1)C2)CN1CCCCC1 (stereo unspecified) = inactive
• O=C(OCC(=O)N1CCCC1=O)c1cc(S(=O)(=O)N2CCOCC2)ccc1Cl = inactive
• COc1ccc(NC(=O)c2cc3nc(-c4ccccc4)cc(C)n3n2)cc1OC = inactive
• CCN(C(=O)COC(=O)C1CCN(S(=O)(=O)c2ccc(C)c(C)c2)CC1)C1CCS(=O)(=O)C1 (stereo unspecified) = inactive
• O=C(COc1ccc([N+](=O)[O-])cc1Cl)Nc1ccc2[nH]c(=O)[nH]c2c1 = inactive
